pIC50: −log10 of the molar value. Structures can show the parent of a compound that is named as a salt.
Values of pIC50 reported for human factor XIa (Homo sapiens) appear below.
quantity-name: pIC50

INSERT INTO measurements (molecule, readout_value) VALUES
  ('Cc1cc(C(=O)NC2CCNCC2)ccc1-c1ccc(C[C@H](NC(=O)[C@H]2CC[C@H](CN)CC2)C(=O)Nc2ccc3nc(C(F)(F)C(F)(F)C(F)(F)F)[nH]c3c2)cc1 [Example 85, hydrochloride]', 7.80),
  ('Cc1cc(C(=O)NC(C)C)ccc1-c1ccc(C[C@H](NC(=O)[C@H]2CC[C@H](CN)CC2)C(=O)Nc2ccc(-c3nn[nH]n3)c(F)c2)cc1 [Example 96, hydrochloride]', 8.89),
  ('Cc1cc(C(=O)NC(C)C)ccc1-c1ccc(C[C@H](NC(=O)[C@H]2CC[C@H](CN)CC2)C(=O)Nc2cc(Cl)c3[nH]c(=O)[nH]c3c2)cc1 [Example 158, hydrochloride]', 8.42);

====

pIC50: −log10 of the molar value. Counter-ions that a name gives are not always drawn.
The molecules below have reported pIC50 for human factor XIa (Homo sapiens, UniProt P03951).
quantity-name: pIC50

INSERT INTO assay_data (molecule, readout_value) VALUES
  ('Cc1cc(C(=O)N[C@H]2CC[C@H](N)CC2)ccc1-c1ccc(C[C@H](NC(=O)[C@H]2CC[C@H](CN)CC2)C(=O)Nc2ccc3[nH]c(C(F)(F)C(F)(F)F)nc3c2)cc1 [Example 79, hydrochloride]', 7.92),
  ('Cc1cc(C(=O)NC(C)C)ccc1-c1ccc(C[C@H](NC(=O)[C@H]2CC[C@H](CN)CC2)C(=O)Nc2ccc3c(c2)[nH]c(=O)n3C)cc1 [Example 140, hydrochloride]', 7.89),
  ('CCN(C)C1CCC(NC(=O)c2ccc(-c3ccc(C[C@H](NC(=O)[C@H]4CC[C@H](CN)CC4)C(=O)Nc4ccc(-c5nnn[nH]5)cc4)cc3)c(C)c2)CC1 (some centres unmarked) [Example 150, hydrochloride]', 8.60),
  ('Cc1nc2ccc(NC(=O)[C@H](Cc3ccc(-c4ccc(C(=O)NC5CCNCC5)cc4C)cc3)NC(=O)[C@H]3CC[C@H](CN)CC3)cc2[nH]1 [Example 50, hydrochloride]', 8.08),
  ('CNC(=O)c1ccc(-c2ccc(C[C@H](NC(=O)[C@H]3CC[C@H](CN)CC3)C(=O)Nc3ccc(-c4nn[nH]n4)cc3)cc2)c(C)c1', 8.54);

====

target-of-assay: UniProt:P03951
pIC50: −log10 of the molar value. Counter-ions that a name gives are not always drawn.
Assign class by pIC50: not lower than 8 means 1.0; lower than 8 means 0.0.

INSERT INTO results (molecule, class_name) VALUES
  ('Cc1cc(C(=O)NC2CCNC(C)C2)ccc1-c1ccc(C[C@H](NC(=O)[C@H]2CC[C@H](CN)CC2)C(=O)Nc2ccc3c(=O)[nH][nH]c3c2)cc1 (some centres unmarked) [Example 31, hydrochloride]', 0.0),
  ('CNC(=O)C(F)(F)C(F)(F)c1nnc(-c2ccc(NC(=O)[C@H](Cc3ccc(-c4ccc(C(=O)NC(C)C)cc4C)cc3)NC(=O)[C@H]3CC[C@H](CN)CC3)cc2)[nH]1 [Example 165, hydrochloride]', 1.0);

====

Each entry below carries its reported IC50.
target-of-assay: human factor XIa (Homo sapiens, UniProt P03951)
Sequence (P03951 388-625 limits assumed): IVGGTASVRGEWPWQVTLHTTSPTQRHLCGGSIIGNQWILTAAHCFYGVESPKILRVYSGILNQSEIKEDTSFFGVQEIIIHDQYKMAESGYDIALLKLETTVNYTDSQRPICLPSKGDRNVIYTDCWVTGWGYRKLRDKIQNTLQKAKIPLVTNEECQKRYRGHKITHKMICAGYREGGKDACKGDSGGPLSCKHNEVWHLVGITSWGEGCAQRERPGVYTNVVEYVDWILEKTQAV
Sequence (P03951 19-387 partner limits assumed): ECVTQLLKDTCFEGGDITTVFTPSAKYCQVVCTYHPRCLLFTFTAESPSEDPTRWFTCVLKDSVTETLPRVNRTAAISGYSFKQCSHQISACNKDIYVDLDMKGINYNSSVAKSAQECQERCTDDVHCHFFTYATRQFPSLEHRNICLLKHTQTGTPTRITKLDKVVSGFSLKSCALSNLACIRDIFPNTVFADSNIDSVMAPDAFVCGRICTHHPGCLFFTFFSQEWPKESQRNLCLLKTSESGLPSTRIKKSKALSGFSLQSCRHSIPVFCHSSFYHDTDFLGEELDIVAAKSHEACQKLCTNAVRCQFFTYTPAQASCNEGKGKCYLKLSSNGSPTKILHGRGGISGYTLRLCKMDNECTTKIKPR
Structures can show the parent of a compound that is named as a salt.
quantity-name: IC50 (nM)

INSERT INTO results (molecule, quantity_name, readout_value) VALUES
  ('NC[C@H]1CC[C@H](C(=O)N[C@@H](Cc2ccc(-c3cc(F)c(C(=O)NC4CCNCC4)c(F)c3)cc2)C(=O)Nc2ccc(-c3nn[nH]n3)cc2)CC1 [Example 118, hydrochloride]', 'IC50', 2.9),
  ('Cc1cc(C(=O)NC2CCNCC2)ccc1-c1ccc(C[C@H](NC(=O)[C@H]2CC[C@H](CN)CC2)C(=O)Nc2ccc(-c3nc(C(F)(F)F)n[nH]3)cc2)cc1 [Example 48, hydrochloride]', 'IC50', 2.7),
  ('Cc1cc(C(=O)NC2CCC3NCCC32)ccc1-c1ccc(C[C@H](NC(=O)[C@H]2CC[C@H](CN)CC2)C(=O)Nc2ccc(-c3nnc(C(F)(F)C(F)(F)C(=O)O)[nH]3)cc2)cc1 (stereo partly drawn) [Example 115, hydrochloride]', 'IC50', 2.3);

Sourced from patent US20160272617A1
